Test: Pharmacokinetics in male beagle dogs after a single oral dose (plasma Compound 1)
Details: dog, 10 mg/kg, AUC(0-T), dog 303, single oral 10 mg/kg dose, plasma Compound 1
property-measured: AUC(0-t) (ng·h/mL)
Entry rule: numbers only, all in ng·h/mL.

GET /value?item= COc1ccc2c(c1OCc1ccccc1)C[C@@H](C(=O)[O-])N(C(=O)C(c1ccccc1)c1ccccc1)C2.[Na+] &field=AUC(0-t) returns 1520

###

Assay: Pharmacokinetics in male beagle dogs after a single oral dose (plasma Compound 1)
Conditions: dog, 10 mg/kg, Cmax, dog 301, single oral 10 mg/kg dose, plasma Compound 1
property-measured: Cmax

GET /value?item= COc1ccc2c(c1OCc1ccccc1)C[C@@H](C(=O)[O-])N(C(=O)C(c1ccccc1)c1ccccc1)C2.[Na+] &field=Cmax returns 1110 ng/mL
